In this section, each of the binders is paired with its reported Kd.
# MEASUREMENT_TARGET: T1, SPATA2_PIM (Homo sapiens (Human), UniProt Q9UM82)
# T1 chain: DVDLYTDSEPR
# MEASUREMENT_PROTOCOL: FP, FITC-Ahx peptide

Observe how each entry below is paired with its result.
>>> meas_value("UBXN6_PUB (protein) STDPVAASIMKIYTFNKDQDRVKLGVDTIAKYLDNIHLHPEEEKYRKIKLQNKVFQERINCLEGTHEFFEAIGFQKVLLPAQDQEDPEEFYVLSETTLAQPQSLERHKEQLLAAE")
"> 100 µM"
>>> meas_value("SPATA2_PUB (protein) MDTKFKDDLFRKYVQFHESKVDTTTSRQRPGSDECLRVAASTLLSLHKVDPFYRFRLIQFYEVVESSLRSLSSSSLRALHGAFSMLETVGINLFLYPWKKEFRSIKTYTGPFVYYVKSTLLEEDIRAILSCMGYTPELGTAYKLRELVETLQVKMVSFELFLAKVECEQMLEIHSQVKDKGYSELDIVSERKSSAEDVRGCSDALRRRAEGRE")
"> 100 µM"
>>> meas_value("HOIP_PUB (protein) MPGEEEERAFLVAREELASALRRDSGQAFSLEQLRPLLASSLPLAARYLQLDAARLVRCNAHGEPRNYLNTLSTALNILEKYGRNLLSPQRPRYWRGVKFNNPVFRSTVDAVQGGRDVLRLYGYTEEQPDGLSFPEGQEEPDEHQVATVTLEVLLLRTELSLLLQNTHPRQQALEQLLEDKVED")
"0.36 µM"

// below: Kd requested for another binder
Prompt: Dear colleague, I am looking for the recorded Kd of the following binder: PNGase_PUB (protein) GSASPAVAELCQNTPETFLEASKLLLTYADNILRNPNDEKYRSIRIGNTAFSTRLLPVRGAVECLFEMGFEEGETHLIFPKKASVEQLQKIRDLIAIER
Completion: > 100 µM
